Documented Population Mitochondria Different-Phenotype (%) across a set of compounds
System: HEK-293T
Assay: Multiplex assay against HEK293T
Type: toxicity, cell-based
Conditions: human, 12 h, 10 µM, compound concentration 10 uM, replicate 2
Give the number first and the unit second.

Sample answers from the record:
| compound | result |
| --- | --- |
| Cc1c(-c2ccc(O)cc2)n(Cc2ccc(OCCN3CCCCCC3)cc2)c2ccc(O)cc12 | 100% |
| CC(C)NCC(O)COc1ccc(CCOCC2CC2)cc1.Cl (configuration not stated) [BETAXOLOL HYDROCHLORIDE] | 71% |
| Cn1cc(-c2[nH]c3cc(NC(=O)[C@H](N)C4CCCCC4)cc4c3c2C=NNC4=O)cn1 | 46% |
| CCN(CC)CCCCNc1ncc2cc(-c3cc(OC)cc(OC)c3)c(NC(=O)NC(C)(C)C)nc2n1 | 24% |
| Cc1cc(C)cc(-c2cnc3cc(Cl)c(-c4cccc(O)c4)cc3c2OCCCN)c1 | 91% |
| CN1CCN(CCOc2cc(OC3CCOCC3)c3c(Nc4c(Cl)ccc5c4OCO5)ncnc3c2)CC1 | 100% |

In the following, a different compound is considered.
Ask: Fill in: Population Mitochondria Different-Phenotype (%) of Cn1c(-c2csc(C3CCN(CC4=NC5N=CC=CC5N4)CC3)n2)nc2ccccc21 (configuration not stated) is ___
Result: 21%

----------
Tested on: HEK-293T
Test: Multiplex assay against HEK293T
Type: toxicity, cell-based
Conditions: human, 48 h, 10 µM, compound concentration 10 uM, replicate 1
Class (required): determined from Population Mitotic Cells (%); valid ranges are lowest (below 20%), middle (20% to below 30%), highest (30% or more)

Previously resolved entries follow.
| compound | assignedClass |
| --- | --- |
| CNc1nc(NCc2ccc(NS(C)(=O)=O)cc2Cl)cc(-c2ccccn2)n1 | middle |
| CC(C)(O)CNc1ncc(-c2ccnc(Nc3ccnc(Cl)c3)n2)c(CC2CC2)n1 | middle |
| Cc1nc(-c2ccc(-c3ccc(C(=O)N4CCc5cc6c(cc54)C4(CCN(C)CC4)CO6)cc3)c(C)c2)no1 [SB-224289] | lowest |
| C[C@@H](NCCCc1cccc(C(F)(F)F)c1)c1cccc2ccccc12.Cl [CINACALCET HYDROCHLORIDE] | lowest |
| CCn1c(=O)c(-c2ccc(Cl)cc2Cl)cc2cnc(Nc3ccc(N4CCNCC4)c(F)c3)nc21 | middle |

Ask: For the record NC(=O)Nc1cc(-c2cccc(F)c2)sc1C(=O)N[C@H]1CCCNC1 [AZD-7762] , report the class its Population Mitotic Cells (%) corresponds to.
Result: middle

Ask: Also check CC(C)NCC(O)COc1ccc(CCOCC2CC2)cc1.Cl (configuration not stated) [BETAXOLOL HYDROCHLORIDE]
Result: highest

Ask: Now this one: Cl.N#Cc1ccc2[nH]cc(CCCCN3CCN(c4ccc5oc(C(N)=O)cc5c4)CC3)c2c1 [VILAZODONE HYDROCHLORIDE]
Result: lowest

Ask: Again, but for c1cn2cc(-c3ccc4cn[nH]c4c3)nc(Nc3ccc(N4CCOCC4)cc3)c2n1 [ENTOSPLETINIB]
Result: highest

Ask: Repeat for the following compound: `COc1cc(-n2cnc3cc(-c4ccc(Cl)cc4)sc3c2=O)ccc1OCCN1CCCC1`
Result: middle

Ask: Another compound to look at: `C=CC(=O)Nc1ccc2ncnc(Nc3ccc(OCc4cccc(F)c4)c(Cl)c3)c2c1.Cc1ccc(S(=O)(=O)O)cc1`
Result: highest

Ask: Moving on to the next compound: COc1ncc(-c2ccc3nccc(-c4ccnnc4)c3c2)cc1NS(=O)(=O)c1ccc(F)cc1F [OMIPALISIB]
Result: highest

Ask: Please do the same for COc1cccc([C@@H](C)NCCCc2ccccc2Cl)c1.Cl [TECALCET HYDROCHLORIDE] as well.
Result: middle

Ask: Could you do the same for `Cc1cc(C)cc(-c2cnc3cc(Cl)c(-c4cccc(O)c4)cc3c2OCCCN)c1` , please?
Result: lowest

Ask: Okay, and `COc1cc2nccc(Oc3ccc(NC(=O)Nc4cc(C)on4)c(Cl)c3)c2cc1OC.O` ?
Result: middle

----------
System: Fibroblast
Assay: Multiplex assay against human fibroblast
Type: toxicity, cell-based
Settings: 48 h, 10 µM, compound concentration 10 uM, replicate 2
Assign Yes whenever Population Mitotic Cells (%) does not fall below 6%; assign No whenever it does.

Solved entries (count: 2):
| compound | tgt | assignedClass |
| --- | --- | --- |
| CCn1c(=O)c(-c2ccc(Cl)cc2Cl)cc2cnc(Nc3ccc(N4CCNCC4)c(F)c3)nc21 | Fibroblast | Yes |
| CC(C)(O)CNc1ncc(-c2ccnc(Nc3ccnc(Cl)c3)n2)c(CC2CC2)n1 | Fibroblast | Yes |

Ask: # bool: Population Mitotic Cells (%) of `Cn1cc(-c2[nH]c3cc(NC(=O)[C@H](N)C4CCCCC4)cc4c3c2C=NNC4=O)cn1` >= 6%
Result: Yes

Ask: Same read-out for CN1CCC[C@@H]1CCO[C@](C)(c1ccccc1)c1ccc(Cl)cc1.O=C(O)/C=C/C(=O)O [CLEMASTINE FUMARATE] ?
Result: Yes

----------
Here, each record is paired with measured Population Hoechst High Intensity Objects (%) data.
Test system: Fibroblast
Assay: Multiplex assay against human fibroblast
Format: toxicity, cell-based
Settings: 24 h, 1 µM, compound concentration 1 uM, replicate 2
# unit: % | format: bare number

Below: 3 molecules and their reported Population Hoechst High Intensity Objects (%).
| molecule | recordedNumber |
| --- | --- |
| Cc1nc(-c2cn3c(n2)-c2ccc(-c4cnn(C(C)(C)C(N)=O)c4)cc2OCC3)n(C(C)C)n1 | 27 |
| Cc1csc2c(N[C@@H](C)CN3CCN(S(=O)(=O)c4ccc(Cl)c(Cl)c4)CC3)ncnc12 | 4 |
| CN1CCCC(n2nc(Cc3ccc(Cl)cc3)c3ccccc3c2=O)CC1.Cl (configuration not stated) [AZELASTINE HYDROCHLORIDE] | 8 |

From here, focus on the item given below.
Ask: Given the entry O=C1NCN(c2ccccc2)C12CCN(CCCOc1ccc(F)cc1)CC2 [SPIRAMIDE] , report its measured Population Hoechst High Intensity Objects (%).
Result: 6

----------
Collected Total Cell Count values appear next to each entry.
Tested on: Fibroblast
Experiment: Multiplex assay against human fibroblast
Type: toxicity, cell-based
Details: 12 h, 10 µM, compound concentration 10 uM, replicate 2
The reply should be a number, written without any unit.

| molecule | tgt | recordedNumber |
| --- | --- | --- |
| CN1CCC[C@@H]1CCO[C@](C)(c1ccccc1)c1ccc(Cl)cc1.O=C(O)/C=C/C(=O)O [CLEMASTINE FUMARATE] | Fibroblast | 46 |
| CNc1nc(NCc2ccc(NS(C)(=O)=O)cc2Cl)cc(-c2ccccn2)n1 | Fibroblast | 56 |
| C=CC(=O)Nc1ccc2ncnc(Nc3ccc(OCc4cccc(F)c4)c(Cl)c3)c2c1.Cc1ccc(S(=O)(=O)O)cc1 | Fibroblast | 69 |
| c1cn2cc(-c3ccc4cn[nH]c4c3)nc(Nc3ccc(N4CCOCC4)cc3)c2n1 | Fibroblast | 56 |

Okay, now this molecule:
Ask: What value of Total Cell Count has been recorded for this entry: `Cc1nc(-c2ccc(-c3ccc(C(=O)N4CCc5cc6c(cc54)C4(CCN(C)CC4)CO6)cc3)c(C)c2)no1`
Result: 56

----------
System: Fibroblast
Experiment: Multiplex assay against human fibroblast
Assay type: toxicity, cell-based
Conditions: 24 h, 1 µM, compound concentration 1 uM, replicate 1
attributeMeasured: Population Pyknosed Nuclei (%)
The answer is to be given in %; state only the numeric part.

Ask: Quick one: Population Pyknosed Nuclei (%) of `CN(C)C(=O)/C(C#N)=C/c1ccc(-c2nc3cnc4[nH]ccc4c3n2C2CCCCC2)o1` ?
Result: 19

Ask: Queued: `C=CC(=O)Nc1cccc(C(=O)Nc2ccc(Nc3cc(-c4[nH]c(SC)nc4C)ccn3)cc2)c1`
Result: 24

Ask: Thanks! And `CN1CCN(CCOc2cc(OC3CCOCC3)c3c(Nc4c(Cl)ccc5c4OCO5)ncnc3c2)CC1` ?
Result: 16

----------
# Population Mitochondria Different-Phenotype (%) per entry
System: Fibroblast
Assay: Multiplex assay against human fibroblast
Assay type: toxicity, cell-based
Conditions: 48 h, 1 µM, compound concentration 1 uM, replicate 2
Write the value in % as a bare number.

The examples below pair each entry with its known result.
| compound | units | recordedNumber |
| --- | --- | --- |
| CN(C)CC#Cc1ccc(OCCCc2sc(N3CCc4cccc(C(=O)Nc5nc6ccccc6s5)c4C3)nc2C(=O)O)c(F)c1 | % | 6 |
| CC(C)(O)CNc1ncc(-c2ccnc(Nc3ccnc(Cl)c3)n2)c(CC2CC2)n1 | % | 1 |
| Cc1nc(-c2ccc(-c3ccc(C(=O)N4CCc5cc6c(cc54)C4(CCN(C)CC4)CO6)cc3)c(C)c2)no1 | % | 3 |
| c1cn2cc(-c3ccc4cn[nH]c4c3)nc(Nc3ccc(N4CCOCC4)cc3)c2n1 | % | 1 |
| CN(C)C(=O)/C(C#N)=C/c1ccc(-c2nc3cnc4[nH]ccc4c3n2C2CCCCC2)o1 | % | 5 |

Ask: Recorded Population Mitochondria Different-Phenotype (%) for `CN1CCN(CCOc2cc(OC3CCOCC3)c3c(Nc4c(Cl)ccc5c4OCO5)ncnc3c2)CC1` , please?
Result: 1

Ask: // next record CC(C)NCC(O)COc1ccc(CCOCC2CC2)cc1.Cl (stereo unspecified) [BETAXOLOL HYDROCHLORIDE]
Result: 1

Ask: Proceed to C[C@@H](NCCCc1cccc(C(F)(F)F)c1)c1cccc2ccccc12.Cl [CINACALCET HYDROCHLORIDE]
Result: 4

Ask: Proceed to `COc1cc(-n2cnc3cc(-c4ccc(Cl)cc4)sc3c2=O)ccc1OCCN1CCCC1`
Result: 3

Ask: How about `Cc1c(-c2ccc(O)cc2)n(Cc2ccc(OCCN3CCCCCC3)cc2)c2ccc(O)cc12` ?
Result: 1

Ask: Now this one: COc1cccc([C@@H](C)NCCCc2ccccc2Cl)c1.Cl [TECALCET HYDROCHLORIDE]
Result: 4

Ask: # repeat for `Cc1csc2c(N[C@@H](C)CN3CCN(S(=O)(=O)c4ccc(Cl)c(Cl)c4)CC3)ncnc12`
Result: 7

Ask: Would you kindly repeat that for `Cc1[nH]c(/C=C2\C(=O)Nc3ccc(S(=O)(=O)N(C)c4cccc(Cl)c4)cc32)c(C)c1C(=O)N1CCN(C)CC1` ?
Result: 15

Ask: Could you do the same for CN1CCCC(n2nc(Cc3ccc(Cl)cc3)c3ccccc3c2=O)CC1.Cl (stereo unspecified) [AZELASTINE HYDROCHLORIDE] , please?
Result: 1

Ask: Continue with `C=CC(=O)Nc1cccc(C(=O)Nc2ccc(Nc3cc(-c4[nH]c(SC)nc4C)ccn3)cc2)c1`
Result: 2

Ask: `CC[C@H](C)C(=O)O[C@H]1C[C@@H](C)C=C2C=C[C@H](C)[C@H](CC[C@@H]3C[C@@H](O)CC(=O)O3)[C@H]21` , same question.
Result: 6
